Would you mind telling me the reported MIC of each entry?
Tested on: Escherichia coli
Experiment: Antibacterial activity against Escherichia coli 15-3 overexpressing extended spectrum beta-lactamases assessed as reduction in bacterial growth
Type: functional

# annotated cases, reported MIC shown
> print(dat)
                               given.smiles       test.target  measured.quantity   reported
1  Nc1nc(/C(=N/OCc2cc(=O)c(O)cn2O)C(=O)N[C@@H]2C(=O)N3C(C(=O)O)=C(Cl)CS[C@H]23)cs1  Escherichia coli                MIC  > 64 mg/L
2  Nc1nc(/C(=N/OCc2cc(=O)c(O)cn2O)C(=O)N[C@@H]2C(=O)N3C(C(=O)O)=CCS[C@H]23)cs1  Escherichia coli                MIC    64 mg/L
3  C/C=C/C1=C(C(=O)O)N2C(=O)[C@@H](NC(=O)/C(=N\OCc3cc(=O)c(O)cn3O)c3csc(N)n3)[C@H]2SC1  Escherichia coli                MIC  > 64 mg/L
4  CC(C)(O/N=C(\C(=O)N[C@@H]1C(=O)N2C(C(=O)[O-])=C(C[n+]3ccccc3)CS[C@H]12)c1csc(N)n1)C(=O)O  Escherichia coli                MIC     8 mg/L

Consider now this further compound.
Could you share which MIC value was measured for `COCC1=C(C(=O)O)N2C(=O)[C@@H](NC(=O)/C(=N\OCc3cc(=O)c(O)cn3O)c3csc(N)n3)[C@H]2SC1` ?
> 64 mg/L
